- procedure summary: qHTS assay for small molecule disruptors of the mitochondrial membrane potential (AID 720635)
- cond: HepG2 mitochondrial membrane potential, Mito-MPS dye ratio; series mostly up to 83.2 µM
Records with an inconclusive call do not appear. The source made the active and inactive calls. The call rests on the fitted dose curve; in most records, active means well fitted inhibition curve with a large enough effect in the signal ratio in the repeat runs; inconclusive means weak or mixed curves, or effect the other way; inactive means flat fitted curve, though single readings scatter; the % refers to the signal ratio.
Please reply with one of these outcomes: active, inactive

Illustrative cases are given below, each with its answer.
N[C@H](C(=O)O)[C@@H](O)c1ccc(O)c(O)c1 ... active
CC(C)(C#N)Nc1nc(Cl)nc(NC2CC2)n1 ... inactive

Task item: Answer briefly: the call reported for COC(=O)Nc1ccc(Cl)c(Cl)c1 in this assay.
Reply: active

Task item: Answer briefly: the call reported for CC[N+](C)(CC)CCOC(=O)C1c2ccccc2Oc2ccccc21 in this assay.
Reply: inactive

Task item: Answer briefly: the call reported for COc1ccccc1OCC1CNC(=O)O1 (configuration not stated) in this assay.
Reply: inactive
